# Tested on: PC-3 prostate
# runDescription: NCI-60 one-dose screen, 48 h
# conditionDetails: 10 µM unless noted
This is part of a sample that, as a whole, favours compounds with a hit. Of some 83,000 tested, about 20% had one in any assay. Active and inactive are the calls of the source. How the source made its calls: active means growth percent below 10; inactive means the rest.
Log the outcome using a class from active, inactive

Some solved entries appear below for comparison.
compound: Cc1ccc([C@@H]2C[C@H](O)Cc3ccccc3N2)s1
assayedTarget: PC-3 prostate
label: inactive

compound: CCCCCCCCCc1cc[n+](CC(=O)c2ccc([N+](=O)[O-])cc2)cc1
assayedTarget: PC-3 prostate
label: active

compound: COc1ccc(-c2nc(Nc3nc4ccccc4[nH]3)nc(N)c2C#N)cc1
assayedTarget: PC-3 prostate
label: inactive

compound: Cc1cc2cn3c4ccc(O)cc4nc(N)c3c2cc1C
assayedTarget: PC-3 prostate
label: inactive

compound: COc1cc2cn3c4ccc(O)cc4[nH]c(=O)c3c2cc1OC
assayedTarget: PC-3 prostate
label: inactive

compound: CCCCCCCCCCCC(=O)OC(C)C(=O)Nc1ccccc1 (stereo not drawn)
assayedTarget: PC-3 prostate
label: inactive

compound: COC1(OC)N=C(N)C2(C#N)C3(C(=O)Nc4ccccc43)C12C#N (stereo not drawn)
assayedTarget: PC-3 prostate
label: inactive

Now take the following compound into account.
Q: Hey, what did the test say about Cc1ccc(S(=O)(=O)N/N=C2\CC3CCC2C3)cc1 (stereo not drawn) ?
Result: inactive

* * *

# System: OVCAR-8 ovarian
# runDescription: NCI-60 one-dose screen, 48 h
# conditionDetails: 10 µM unless noted
Compounds without any hit were thinned out: in the full panel of roughly 83,000, 20% have a hit. Calls of active or inactive are those of the source. Rule for the calls: active = growth percent below 10; inactive = the rest.
Log the outcome using a class from true (1) = active, false (0) = inactive

compound: COC(=O)c1cc(=O)nc(N/N=C/c2ccccc2O)s1
assayedTarget: OVCAR-8 ovarian
label: false (0)

compound: CC1(C)C(O)NC(Cl)=C(C#N)C1(C#N)C#N (stereo not given)
assayedTarget: OVCAR-8 ovarian
label: false (0)

compound: CCCCN(CCCC)CC(O)CN(CC)CC (stereo not given)
assayedTarget: OVCAR-8 ovarian
label: false (0)

Q: Hey, what did the test say about "CCOc1ccc(/C=N/NC(=O)c2cccc3ccccc23)cc1OCC" ?
Result: false (0)

Q: Queued: "CSC1=Nc2c(c(C)c(-c3ccccc3)n2CCCCl)C2=NC(=O)CN12"
Result: false (0)

Q: Queued: "CC(C)(C)c1cc(C[P+](c2ccc(Cl)cc2)(c2ccc(Cl)cc2)c2ccc(Cl)cc2)cc(C(C)(C)C)c1O"
Result: false (0)

* * *

Catalogue of growth readings, one per entry.
# System: COLO 205 colon
# runDescription: NCI-60 one-dose screen, 48 h (100 = growth as untreated, 0 = no growth, -100 = all killed)
# conditionDetails: 10 µM unless noted
Compounds without any hit were thinned out: in the full panel of roughly 83,000, 20% have a hit.
Numeric answer only, unit % assumed.

Worked examples, 5 molecules total:
molecule: c1ccc(Nc2ncc3c(n2)-c2cccn2CC3)cc1
growth [%]: 112
--
molecule: COc1cc2c(cc1OC)C(Cc1cc(OC)c(OC)cc1[N+](=O)[O-])=NCC2
growth [%]: 94.9
--
molecule: CC(=O)OC1/C=C\CC/C=C\C1 (stereo not drawn)
growth [%]: 121
--
molecule: c1ccc(-c2cn3ccnc3c(-c3ccc4ncn(C5CCCCC5)c4c3)n2)cc1
growth [%]: 79.3
--
molecule: CNCCCNCCCCNCCCN1C(=O)c2ccc3c4c(ccc(c24)C1=O)C(=O)N(CCCNCc1ccccc1OC)C3=O
growth [%]: 10.8

Q: Observed growth on COLO 205 colon for CCOC(=O)C(C)C(C)(O)c1ccccc1 (stereo not drawn) , please.
Result: 112

Q: Queued: "CSc1nc(N)n2nccc2n1"
Result: 105

* * *

Catalogue of growth readings, one per entry.
# Tested on: MDA-MB-435 melanoma
# runDescription: NCI-60 one-dose screen, 48 h (100 = growth as untreated, 0 = no growth, -100 = all killed)
# conditionDetails: 10 µM unless noted
The panel holds about 83,000 compounds, 20% with a hit somewhere; the sample as a whole holds those more often.
Numeric answer only, unit % assumed.

Worked examples, 2 compounds total:
compound: COc1cccc(Cn2cc3c(c2)-c2oncc2CC3)c1
growth (%): -47

compound: COC1NC(Cl)=C(C#N)C(C#N)(C#N)C1(C)C (stereo not drawn)
growth (%): 124

Q: State the recorded growth for this entry: "O=c1[nH]c(=S)[nH]c(O)c1/C=C1\C=Nc2ccccc21"
Result: 47.3

* * *

# System: UO-31 renal
# runDescription: NCI-60 one-dose screen, 48 h
# conditionDetails: 10 µM unless noted
This is part of a sample that, as a whole, favours compounds with a hit. Of some 83,000 tested, about 20% had one in any assay. Calls of active or inactive are those of the source. How the source made its calls: active means growth percent below 10; inactive means the rest.
Log the outcome using a class from t = active, f = inactive

Some solved entries appear below for comparison.
compound: O=C(Nc1cccc2[nH]c(C(F)(F)F)nc12)c1ccc(F)cc1
label: f
//
compound: CCOC(=O)NC1=NCC(C)(C)S1
label: f
//
compound: COC(=O)c1ccc2[nH]c(O)c(C(=Nc3ccc(N(C)C(=O)CN4CCN(C)CC4)cc3)c3ccc(OC)cc3)c2c1
label: f

Q: Hey, what did the test say about COc1ccc(C2C3(C#N)C(N)=NC(=C(C#N)C#N)C23C#N)cc1OC (stereo not drawn) ?
Result: f

Q: Queued: OCC(O)C(O)CC1SCCS1 (stereo not drawn)
Result: f

Q: Queued: "CCCCCSc1ccc2nc(NC(=O)OCC)sc2c1"
Result: f

Q: Queued: "C#CCCCCCCC[C@@H]1OC(=O)[C@H]([C@@H](C)CC)NC(=O)[C@@H]([C@@H](C)CC)NC(=O)CC(=O)[C@@H]1C"
Result: f

* * *

# Test system: HOP-62 NSCLC
# runDescription: NCI-60 one-dose screen, 48 h
# conditionDetails: 10 µM unless noted
About 83,000 compounds went through this panel and 20% of them were active in at least one assay; those are over-represented in the sample as a whole. Calls of active or inactive are those of the source. The calls were made as follows: active = growth percent below 10; inactive = the rest.
Log the outcome using a class from label 1 = active, label 0 = inactive

Some solved entries appear below for comparison.
molecule: CCCCCCCCCCCCCCCCNC(=S)N/N=C/c1ccc(O)cc1O
assayedTarget: HOP-62 NSCLC
label: label 0
--
molecule: C/C=C/C/C=C/[C@H](C)C[C@H](O)[C@@H]1C[C@@H]2O[C@H]2/C=C/[C@H](O)[C@@H](O)/C=C/C[C@H](C)CC(=O)O1
assayedTarget: HOP-62 NSCLC
label: label 0
--
molecule: Cc1ccc(NC(=O)CCl)cc1Cl
assayedTarget: HOP-62 NSCLC
label: label 0

Q: Hey, what did the test say about CCCCCCCCCCC(C[N+](C)(C)C/C=C/c1ccccc1)C(O)c1ccccc1 (stereo unspecified) ?
Result: label 1

Q: Queued: CCCCCCCCCCCC(=O)OC(C)C(=O)Nc1ccccc1 (stereo unspecified)
Result: label 0

Q: Queued: "CNc1ccc(Nc2ccc(S(=O)(=O)O)cc2)c2c1C(=O)c1ccccc1C2=O"
Result: label 0

* * *

# System: MDA-MB-435 melanoma
# runDescription: NCI-60 one-dose screen, 48 h
# conditionDetails: 10 µM unless noted
The panel holds about 83,000 compounds, 20% with a hit somewhere; the sample as a whole holds those more often. Calls of active or inactive are those of the source. The calls were made as follows: active = growth percent below 10; inactive = the rest.
Log the outcome using a class from label 1 (active), label 0 (inactive)

structureSmilesString: C=CCNC(=S)NNc1ccc([N+](=O)[O-])cn1
label: label 0

Q: Hey, what did the test say about "CCN(CC)c1ccc2nc3ccc(N=Nc4ccc(O)cc4)cc3[n+](-c3ccccc3)c2c1" ?
Result: label 0

Q: Queued: "CN1NC(c2ccccc2)NN(C)C1=O"
Result: label 0

Q: Queued: "CC(C)(C)c1ccc([I+]c2ccc(C(C)(C)C)cc2)cc1"
Result: label 1

* * *

Catalogue of growth readings, one per entry.
# Test system: IGROV1 ovarian
# runDescription: NCI-60 one-dose screen, 48 h (100 = growth as untreated, 0 = no growth, -100 = all killed)
# conditionDetails: 10 µM unless noted
About 83,000 compounds went through this panel and 20% of them were active in at least one assay; those are over-represented in the sample as a whole.
Numeric answer only, unit % assumed.

Worked examples, 3 compounds total:
structureSmilesString: c1ccc(-c2cn3ccnc3c(-c3ccc4ncn(C5CCCCC5)c4c3)n2)cc1
assayedTarget: IGROV1 ovarian
unitInfo: %
growth: 88

structureSmilesString: OCCN1CCCN(CCCN2c3ccccc3Sc3ccc(C(F)(F)F)cc32)CC1
assayedTarget: IGROV1 ovarian
unitInfo: %
growth: 41.3

structureSmilesString: Cc1sc(NC(=O)c2ccc(C(C)(C)C)cc2)c(C(=O)O)c1C
assayedTarget: IGROV1 ovarian
unitInfo: %
growth: 70.9

Now consider a different compound.
Q: State the recorded growth for this entry: "COc1ccc(/C=C/C(=O)/C=C/c2cc3ccccc3[nH]c2=O)cc1"
Result: 130
